# measurement target: UniProt:C7FF04
# Sequence (C7FF04 1-392 limits assumed): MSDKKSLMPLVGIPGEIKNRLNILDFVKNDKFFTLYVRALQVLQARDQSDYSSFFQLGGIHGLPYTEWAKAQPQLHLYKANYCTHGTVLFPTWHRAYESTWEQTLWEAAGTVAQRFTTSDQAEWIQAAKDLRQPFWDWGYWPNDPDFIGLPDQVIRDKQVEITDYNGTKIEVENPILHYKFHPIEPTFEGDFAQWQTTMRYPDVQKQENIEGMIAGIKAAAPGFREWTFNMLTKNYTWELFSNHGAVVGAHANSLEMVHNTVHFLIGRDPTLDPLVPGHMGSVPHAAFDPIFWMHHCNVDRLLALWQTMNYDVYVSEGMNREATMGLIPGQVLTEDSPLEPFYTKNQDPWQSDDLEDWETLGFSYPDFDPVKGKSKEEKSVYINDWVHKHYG
pIC50: −log10 of the molar value.
experimental readout: pIC50

Lookup: Consider the compound "N[C@@H](CCC(=O)N[C@@H](CS)C(=O)NCC(=O)O)C(=O)O" . State its measured pIC50.
Found: 5.70 to 6.00
